MEASURED ON: Histamine H4 receptor (Homo sapiens)
EXPERIMENTAL DETAILS: Displacement of [3H]-histamine from recombinant human histamine H4 receptor expressed in CHO-K1 cell membranes measured after 30 mins by microbeta scintillation counting method
Design: species or system Cell membrane
pIC50: −log10 of the molar value.
PROPERTY LABEL: pIC50

Use the examples below as a reference point.
> print(dat)
                                  compound  numeric.readout
1      CN1CCCN(c2nc3ncc(Cl)cc3n3cnnc23)CC1             5.54
2           CN1CCN(c2nc3cccnc3n3cnnc23)CC1             5.52
3       CN1CCN(c2cc3ccc(Cl)cc3n3cnnc23)CC1             5.21
4  CN[C@@H]1CCN(c2nc3ncc(Cl)cc3n3cnnc23)C1             5.39

A = CN1CCN(c2nc3ncccc3n3cnnc23)CC1
B = CNC1CN(c2nc3ncc(Cl)cc3c3ncnn23)C1
C = CNC1CN(c2nc3ncc(Cl)cc3n3cnnc23)C1
D = Cc1ccc2nc(N3CCN(C)CC3)c3nncn3c2c1
IN: Please give the order of these compounds when sorted by pIC50, largest value leading. Dear reader, please state the labels in the requested order.
OUT: C, D, B, A
